Readings of growth for the listed compounds
- Test system: Escherichia coli IAI1
- PROTOCOL_NOTES: growth (OD595) fold change vs plate DMSO controls (fold change (ratio)); higher = more growth
- CONDITION: incubation time: 27 h, anaerobic, 37 °C
Counter-ions that a name gives are not always drawn.
Number only, please.

[
  {
    "COMPOUND": "C=CCOC(Cn1ccnc1)c1ccc(Cl)cc1Cl (stereo not given) (20 µM)",
    "QUANTITY_MEASURED": "growth",
    "NUMERIC_READOUT": 0.991
  },
  {
    "COMPOUND": "CCN(CC)CC#CCOC(=O)C(O)(c1ccccc1)C1CCCCC1 (stereo not given) [Oxybutynin chloride] (20 µM)",
    "QUANTITY_MEASURED": "growth",
    "NUMERIC_READOUT": 0.971
  },
  {
    "COMPOUND": "CCCCOc1ccc(C(=O)CCN2CCCCC2)cc1 [Dyclonine hydrochloride] (20 µM)",
    "QUANTITY_MEASURED": "growth",
    "NUMERIC_READOUT": 0.992
  },
  {
    "COMPOUND": "CN1CCC(=C2c3ccccc3CCc3cccnc32)CC1 [Azatadine maleate] (20 µM)",
    "QUANTITY_MEASURED": "growth",
    "NUMERIC_READOUT": 0.983
  }
]

Just so you know, measured growth for COc1cc(NS(=O)(=O)c2ccc(N)cc2)ncn1 [Sulfamonomethoxine] (20 µM) came out at 0.996
